Test system: ECV304
Assay: Tube-like-structure (TLS) formation of ECV304 cells on Matrigel
Assay type: cell-based, human
Conditions: 0.5 μg/ml; 24-48 hours
Provide the reported % reduction in total tube area of each item.
Dear colleague, please return just the value in %, with no unit written.

Req: Give % reduction in total tube area for CC(C)C1CCC2(C(=O)O)CCC3(C)C(CCC4C5(C)CCC(=NOCc6ccc([N+](=O)[O-])cc6)C(C)(C)C5CCC43C)C12 (stereo not shown)
Resp: 15

Req: Give % reduction in total tube area for CC(C)C1CCC2(C(=O)O)CCC3(C)C(CCC4C5(C)CCC(N=Cc6ccc(F)cc6F)C(C)(C)C5CCC43C)C12 (stereo not shown)
Resp: 23.4

Req: Give % reduction in total tube area for CC(C)C1CCC2(C(=O)O)CCC3(C)C(CCC4C5(C)CCC(N=Cc6ccc(F)c(F)c6)C(C)(C)C5CCC43C)C12 (stereo not shown)
Resp: 21.1

Req: Give % reduction in total tube area for CC(C)C1CCC2(C(=O)O)CCC3(C)C(CCC4C5(C)CCC(OC(=O)c6ccc(F)cc6F)C(C)(C)C5CCC43C)C12 (stereo not shown)
Resp: 16.7
